# subjectOfTest: Potassium voltage-gated channel subfamily KQT member 1 (Homo sapiens) (UniProt P51787)
# Sequence (P51787 whole entry, looked up): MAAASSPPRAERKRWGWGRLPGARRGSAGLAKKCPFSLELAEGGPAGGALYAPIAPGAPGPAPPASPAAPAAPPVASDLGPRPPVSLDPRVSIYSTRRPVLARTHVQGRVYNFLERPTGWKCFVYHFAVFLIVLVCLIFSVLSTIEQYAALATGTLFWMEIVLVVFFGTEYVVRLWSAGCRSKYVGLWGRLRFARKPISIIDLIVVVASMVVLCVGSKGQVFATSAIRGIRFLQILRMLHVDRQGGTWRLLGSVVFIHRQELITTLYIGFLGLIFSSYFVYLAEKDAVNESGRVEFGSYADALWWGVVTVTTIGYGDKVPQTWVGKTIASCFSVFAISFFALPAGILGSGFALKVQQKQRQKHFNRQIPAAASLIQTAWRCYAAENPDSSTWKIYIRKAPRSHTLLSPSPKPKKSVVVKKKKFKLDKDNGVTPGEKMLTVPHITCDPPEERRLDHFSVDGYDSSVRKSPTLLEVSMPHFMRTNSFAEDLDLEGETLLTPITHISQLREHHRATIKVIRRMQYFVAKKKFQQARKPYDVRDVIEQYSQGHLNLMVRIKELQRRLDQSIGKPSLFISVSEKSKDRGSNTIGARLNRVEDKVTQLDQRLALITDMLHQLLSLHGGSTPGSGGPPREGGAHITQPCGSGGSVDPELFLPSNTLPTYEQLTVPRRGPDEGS
# assayProcedure: KCNQ1 potassium channel potentiators, confirmation, FluxOR thallium flux, CHO cells, duplicates (AID 493007);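 for potentiation: 0% = buffer-only wells and 100% = R-L3 activator control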
# testParameters: KCNQ1 cell line, FluxOR thallium flux fluorescence, at 10 µM; stronger effect = higher value, % of reference activator effect, buffer zero
Calls of active or inactive are those of the source.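 Rule for the calls: active = potentiation averaged over duplicate wells exceeding buffer-only control mean by more than 3 SD; inactive = the rest.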

# compound, potentiation
records = [
    ("Cc1cccc(NC(=O)CSc2ccc3nnc(-c4cccnc4)n3n2)c1", "inactive"),
    ("CN(CC(=O)Nc1ccc(F)c(F)c1F)C(=O)CC1OC(=O)c2ccccc21 (configuration not stated)", "inactive"),
    ("CC(=O)OCC(=O)[C@@]1(OC(C)=O)[C@@H](C)C[C@H]2[C@@H]3C[C@H](F)C4=CC(=O)C=C[C@]4(C)[C@@]3(F)[C@@H](O)C[C@@]21C", "inactive"),
    ("CCOC(=O)c1c(-c2ccc(C)o2)csc1NC(=S)NC(=O)N(C)C", "171% (active)"),
    ("COc1ccccc1C(=O)Nc1ccnn1C1CCN(CCCC2CCCC2)CC1", "inactive"),
    ("COc1cc(/C=C2\\C(=O)N(C)C(=S)N2C)ccc1O", "inactive"),
    ("CCc1ccc2nc(NC(=O)c3cc(C)on3)sc2c1", "55% (active)"),
    ("CCNC(=S)Nc1nc2c(cc1C(=O)OCC)CCCC2", "35% (active)"),
    ("COc1ccc(NC(=O)C(=O)NNC(=O)C(C)Oc2ccc(Cl)cc2Cl)cc1 (configuration not stated)", "177% (active)"),
    ("O=C(N/N=C1/C(=O)c2cccc3cccc1c23)c1ccc(Cl)cc1", "83.5% (active)"),
    ("NC(=Nc1ccccc1)Nc1ccccc1", "inactive"),
    ("CCSC(=S)c1c(C)[nH]n(-c2ccccc2)c1=O", "30% (active)"),
    ("COc1ccccc1CNC(=O)c1oc2ccc(S(=O)(=O)N3CCOCC3)cc2c1C", "inactive"),
    ("CC(C)CC(=O)NC(=S)Nc1nc(-c2cccc3ccccc23)cs1", "60% (active)"),
    ("CC1(c2ccccc2)CC(C)(C)N2C(=O)/C(=C3\\SC(=S)NC3=O)c3cccc1c32 (configuration not stated)", "292% (active)"),
    ("CC12CCC(C/C1=N\\N=C1\\NC(=O)/C(=C\\c3cccc(Br)c3)S1)C2(C)C (configuration not stated)", "51% (active)"),
    ("Cc1sc2nc(C(C)C)nc(SCC(=O)NCc3ccco3)c2c1C", "85.5% (active)"),
    ("Fc1ccc(-n2cc(-c3ccccc3)c3c(=S)nc[nH]c32)cc1", "108% (active)"),
    ("O=C(OCc1cccc([N+](=O)[O-])c1)c1ccncc1", "inactive"),
    ("O=C(NC(=S)Nc1ccccc1N1CCOCC1)c1ccc(-c2cc(Cl)ccc2Cl)o1", "inactive"),
    ("CCn1ncc(Cl)c1C(=O)NC(=S)Nc1ccccc1Br", "200% (active)"),
    ("Cc1cc(N2CCN(C)CC2)nc2ccc(NC(=S)NCCCN3CCc4ccccc4C3)cc12", "inactive"),
]

This collection of values is drawn from PubChem BioAssay.
